Each record here notes measured PBM E-score.
# Experimental system: Ybr033w (UniProt P38073)
# Sequence: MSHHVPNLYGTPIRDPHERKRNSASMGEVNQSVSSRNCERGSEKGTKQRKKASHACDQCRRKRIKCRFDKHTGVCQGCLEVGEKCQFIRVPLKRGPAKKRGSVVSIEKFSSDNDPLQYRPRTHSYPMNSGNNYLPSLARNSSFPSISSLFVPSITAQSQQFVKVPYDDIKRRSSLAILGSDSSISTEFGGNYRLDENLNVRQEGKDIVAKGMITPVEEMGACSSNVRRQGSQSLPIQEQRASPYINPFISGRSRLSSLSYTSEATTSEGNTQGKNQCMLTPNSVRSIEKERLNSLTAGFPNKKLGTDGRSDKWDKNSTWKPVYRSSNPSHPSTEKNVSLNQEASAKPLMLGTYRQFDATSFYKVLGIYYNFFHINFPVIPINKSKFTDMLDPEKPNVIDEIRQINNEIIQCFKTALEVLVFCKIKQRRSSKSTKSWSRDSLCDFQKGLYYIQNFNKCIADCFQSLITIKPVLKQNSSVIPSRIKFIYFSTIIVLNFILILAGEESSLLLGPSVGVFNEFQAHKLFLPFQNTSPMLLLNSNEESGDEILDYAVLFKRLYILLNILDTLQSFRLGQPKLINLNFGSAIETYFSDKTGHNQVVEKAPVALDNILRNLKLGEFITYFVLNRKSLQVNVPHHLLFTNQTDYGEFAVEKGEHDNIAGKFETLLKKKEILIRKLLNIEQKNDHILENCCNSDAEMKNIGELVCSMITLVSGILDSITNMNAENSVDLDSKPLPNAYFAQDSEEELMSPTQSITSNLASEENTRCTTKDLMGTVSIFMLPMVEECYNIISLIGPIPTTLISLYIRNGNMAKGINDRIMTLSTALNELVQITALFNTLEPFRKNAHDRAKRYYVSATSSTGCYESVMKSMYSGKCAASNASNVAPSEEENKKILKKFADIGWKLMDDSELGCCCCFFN
# Test: PBM E-score (8-mer binding enrichment) (E-score (-0.5 to 0.5)); higher = stronger / more preferred TF binding
# Stated conditions: protein concentration: 200 nM; construct: GST-full length
Whole data set: some 33,000 sequences, median “E-score (-0.5 to 0.5)” near -0.012, cut for the highest 2% near 0.29. The full list was thinned out, with the highest values kept by preference.
Output spec: single numeric token, no unit.

Macromolecule sequence	Experimental system	Result value
CATTTCAA	Ybr033w (UniProt P38073)	0.242
CCTCCAGG	Ybr033w (UniProt P38073)	-0.322
CGGAAGAC	Ybr033w (UniProt P38073)	0.00735
GCGGAAGA	Ybr033w (UniProt P38073)	0.236
TTAACGAA	Ybr033w (UniProt P38073)	0.296
AAGCTTAC	Ybr033w (UniProt P38073)	0.0655
TACGACTA	Ybr033w (UniProt P38073)	0.0548
GGGGAATA	Ybr033w (UniProt P38073)	-0.0146
CCGGAATC	Ybr033w (UniProt P38073)	-0.0781
CTAATCCC	Ybr033w (UniProt P38073)	-0.0661

q: Recorded PBM E-score for AATGTGAC , please?
a: 0.0448

q: Try this sequence too: TAGGTGCA
a: -0.0741

* * *

# Experimental system: Ybr033w (UniProt P38073)
# Sequence: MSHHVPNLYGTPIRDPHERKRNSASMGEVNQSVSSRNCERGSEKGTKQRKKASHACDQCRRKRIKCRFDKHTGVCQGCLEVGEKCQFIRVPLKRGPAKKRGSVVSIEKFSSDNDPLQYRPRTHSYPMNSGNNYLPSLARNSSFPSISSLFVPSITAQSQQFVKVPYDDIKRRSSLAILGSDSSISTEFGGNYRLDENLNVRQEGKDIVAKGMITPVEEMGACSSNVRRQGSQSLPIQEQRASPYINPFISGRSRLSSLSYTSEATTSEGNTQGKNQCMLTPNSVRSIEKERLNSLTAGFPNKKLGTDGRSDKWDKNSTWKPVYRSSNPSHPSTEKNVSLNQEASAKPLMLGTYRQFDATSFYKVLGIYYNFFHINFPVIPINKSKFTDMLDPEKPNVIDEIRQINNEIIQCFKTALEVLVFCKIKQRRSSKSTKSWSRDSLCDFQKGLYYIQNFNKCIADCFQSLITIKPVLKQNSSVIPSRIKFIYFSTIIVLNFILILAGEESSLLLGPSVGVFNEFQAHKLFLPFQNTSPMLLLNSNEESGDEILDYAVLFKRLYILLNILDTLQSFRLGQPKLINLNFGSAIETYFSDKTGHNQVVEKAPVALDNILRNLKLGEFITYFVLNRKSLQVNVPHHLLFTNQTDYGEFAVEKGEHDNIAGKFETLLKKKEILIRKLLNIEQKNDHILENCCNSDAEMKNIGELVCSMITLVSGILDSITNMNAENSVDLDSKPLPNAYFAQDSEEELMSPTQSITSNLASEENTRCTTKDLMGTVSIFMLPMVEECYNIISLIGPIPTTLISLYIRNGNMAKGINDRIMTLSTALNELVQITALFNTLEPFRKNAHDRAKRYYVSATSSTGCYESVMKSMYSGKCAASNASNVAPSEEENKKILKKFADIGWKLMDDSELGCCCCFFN
# Test: PBM E-score (8-mer binding enrichment) (E-score (-0.5 to 0.5)); higher = stronger / more preferred TF binding
# Stated conditions: protein concentration: 200 nM; construct: GST-full length
Over roughly 33,000 sequences, “E-score (-0.5 to 0.5)” has its median near -0.012; the highest 2% begin near 0.29. Many of the other results were omitted from the sample, so the highest values are more common in it than they were.
Classes based on PBM E-score: lower segment: < 0.06; middle segment: ≥ 0.06 and < 0.2; upper segment: ≥ 0.2

Macromolecule sequence	Class name
ACAAAGTC	lower segment
ATCGAGCG	lower segment
ACAATATA	upper segment
GCAAAGTA	middle segment

q: Each sequence maps to one class by PBM E-score. Which class for CGAGTGGC ?
a: lower segment

q: Similarly, ATAAAGTA ?
a: upper segment

q: Same question, GGATCTAA this time
a: lower segment

q: And what about the sequence CATTGATC ?
a: upper segment

q: Cool, now AGCTTATG
a: lower segment

q: Further, for AGAATAAG ?
a: middle segment

q: What do you get for ATCTATTC ?
a: middle segment

q: Ok, now AATCATCA
a: middle segment

q: Same thing, different sequence: CTAAAGAA
a: middle segment

q: Lookup TTAAAGAA
a: middle segment

q: Let us now turn to AGAATAAC
a: middle segment

q: Moving on to AGAATAAT
a: middle segment

q: Okay, and TAGACAGA ?
a: middle segment

q: // repeat for AGGTCTTG and report
a: lower segment

q: Another: CGAATAAA
a: middle segment

q: Follow-up item: CAAATATC
a: upper segment

q: Now this one: ATAAAGAA
a: upper segment

q: How about TGAGCCCA ?
a: lower segment

* * *

# Experimental system: Ybr033w (UniProt P38073)
# Sequence: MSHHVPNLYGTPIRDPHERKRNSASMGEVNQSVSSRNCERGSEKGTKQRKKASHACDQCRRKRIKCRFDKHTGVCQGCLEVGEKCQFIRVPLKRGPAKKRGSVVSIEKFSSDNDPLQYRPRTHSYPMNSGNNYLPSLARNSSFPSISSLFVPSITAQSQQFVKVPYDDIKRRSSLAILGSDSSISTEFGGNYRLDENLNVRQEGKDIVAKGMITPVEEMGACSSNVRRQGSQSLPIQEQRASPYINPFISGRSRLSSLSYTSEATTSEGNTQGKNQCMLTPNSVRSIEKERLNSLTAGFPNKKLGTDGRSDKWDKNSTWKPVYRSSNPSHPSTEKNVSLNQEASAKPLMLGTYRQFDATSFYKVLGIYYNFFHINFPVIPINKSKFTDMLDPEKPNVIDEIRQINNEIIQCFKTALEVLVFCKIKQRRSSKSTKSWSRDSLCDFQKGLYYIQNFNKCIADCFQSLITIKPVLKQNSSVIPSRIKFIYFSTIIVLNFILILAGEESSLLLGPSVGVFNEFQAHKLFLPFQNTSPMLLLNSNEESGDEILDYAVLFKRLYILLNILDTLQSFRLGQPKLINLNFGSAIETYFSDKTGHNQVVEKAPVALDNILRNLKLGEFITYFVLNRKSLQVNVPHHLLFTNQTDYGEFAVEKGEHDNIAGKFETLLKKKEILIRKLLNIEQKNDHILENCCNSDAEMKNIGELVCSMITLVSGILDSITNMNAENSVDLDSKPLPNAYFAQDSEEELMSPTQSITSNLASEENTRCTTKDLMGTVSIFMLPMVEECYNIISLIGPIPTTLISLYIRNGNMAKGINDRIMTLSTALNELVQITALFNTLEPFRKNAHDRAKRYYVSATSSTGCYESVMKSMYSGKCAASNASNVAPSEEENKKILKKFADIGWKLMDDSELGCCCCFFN
# Test: PBM E-score (8-mer binding enrichment) (E-score (-0.5 to 0.5)); higher = stronger / more preferred TF binding
# Stated conditions: protein concentration: 200 nM; construct: GST-full length
In all, about 33,000 sequences were measured (“E-score (-0.5 to 0.5)”: median about -0.012, highest 2% from about 0.29 on). Shown is part of a subset that was picked to be rich in the highest values.
Classification field. Basis: PBM E-score. Definitions: group A (below 0.07), group B (0.07 to below 0.2), group C (0.2 or more)

Completed entries (count: 3):
Macromolecule sequence	Experimental system	Class name
AATGATAG	Ybr033w (UniProt P38073)	group C
ACCCAGGG	Ybr033w (UniProt P38073)	group A
ACAAGTTA	Ybr033w (UniProt P38073)	group B

q: State the band of ATGACAAG
a: group A
